// reported pIC50 per item
# Experimental system: IKKε (Homo sapiens (Human), UniProt Q14164)
# Sequence (Q14164 whole entry): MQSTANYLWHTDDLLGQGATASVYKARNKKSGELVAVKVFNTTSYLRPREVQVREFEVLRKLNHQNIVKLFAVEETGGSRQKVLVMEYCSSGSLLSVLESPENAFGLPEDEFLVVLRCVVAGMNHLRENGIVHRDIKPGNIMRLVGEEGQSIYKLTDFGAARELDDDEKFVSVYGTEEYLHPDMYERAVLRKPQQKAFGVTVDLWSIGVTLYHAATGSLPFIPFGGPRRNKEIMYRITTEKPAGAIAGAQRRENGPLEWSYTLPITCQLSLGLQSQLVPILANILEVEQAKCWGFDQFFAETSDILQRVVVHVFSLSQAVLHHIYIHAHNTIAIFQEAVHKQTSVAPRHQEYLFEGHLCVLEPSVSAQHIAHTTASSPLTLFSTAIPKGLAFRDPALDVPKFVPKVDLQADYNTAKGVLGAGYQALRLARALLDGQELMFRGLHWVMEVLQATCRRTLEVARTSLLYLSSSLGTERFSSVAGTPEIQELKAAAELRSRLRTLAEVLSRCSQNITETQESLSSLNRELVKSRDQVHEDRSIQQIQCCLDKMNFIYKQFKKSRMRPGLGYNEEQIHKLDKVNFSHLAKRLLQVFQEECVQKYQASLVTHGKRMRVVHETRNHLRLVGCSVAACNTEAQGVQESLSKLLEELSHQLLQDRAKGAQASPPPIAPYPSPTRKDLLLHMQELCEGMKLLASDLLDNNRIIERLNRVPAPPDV
# Procedure text: TR-FRET kinase assay, IKKε
# Particulars: full length recombinant IKKε 0.3 nM, 2x Km ATP, 1 μM peptide, 240 min at 25° C.; geometric mean of minimum four determinations
pIC50: −log10 of the molar value.

N#Cc1cc(-c2ccnc3[nH]c(-c4ccc5c(c4)C(=O)NC5)cc23)ccc1OC1CCOCC1 :: < 6.00
N#Cc1cc(-c2cnnc3[nH]c(-c4ccc(N5CCOCC5)cc4)nc23)ccc1OC1CCOCC1 :: < 6.00

Reported pIC50 ( CC(C)(C)OC(=O)N1CCC(Oc2ccc(-c3ncnc4[nH]c(-c5ccc(N6CCOCC6)cc5)nc34)cc2C#N)CC1 ) = < 6.00

###

# Experimental system: TBK1 (Homo sapiens (Human))
# Procedure text: TR-FRET kinase assay, TBK1
# Particulars: read-out: TBK1-IC50; full length recombinant TBK1 2.5 nM, 2x Km ATP, 1 μM peptide, 240 min at 25° C.; geometric mean of minimum four determinations
Response field label takes t when IC50 is strictly below 6 nM and f in all other cases.

N#Cc1cc(-c2ncnc3[nH]c(-c4ccc(N5CCN(CC(F)F)CC5)cc4)cc23)ccc1OC1CCNCC1 :: f
COc1cc(-c2cc3c(-c4ccc(OC5CCNCC5)c(C#N)c4)ncnc3[nH]2)ccc1N1CCOCC1 :: f

Prompt line: Strictly below 6 nM: is that where IC50 of N#Cc1cc(-c2ncnc3[nH]c(-c4ccc(OCCN5CCCC5)cc4)nc23)ccc1OC1CCN(C(=O)CO)CC1 sits?
Response line: t

Prompt line: Consider the compound N#Cc1cc(-c2ccnc3[nH]c(-c4ccc5c(c4)OCC(=O)N5)cc23)ccc1OC1CCOCC1 . Is its IC50 strictly less than 6 nM?
Response line: f

Prompt line: Does this compound meet the criterion IC50 < 6 nM? COc1cc(N2CCOCC2)ccc1-c1cc2c(-c3ccc(OC4CCOCC4)c(C#N)c3)ncnc2[nH]1
Response line: f

###

# Experimental system: TBK1 (Homo sapiens (Human), UniProt Q9UHD2)
# Sequence (Q9UHD2 whole entry): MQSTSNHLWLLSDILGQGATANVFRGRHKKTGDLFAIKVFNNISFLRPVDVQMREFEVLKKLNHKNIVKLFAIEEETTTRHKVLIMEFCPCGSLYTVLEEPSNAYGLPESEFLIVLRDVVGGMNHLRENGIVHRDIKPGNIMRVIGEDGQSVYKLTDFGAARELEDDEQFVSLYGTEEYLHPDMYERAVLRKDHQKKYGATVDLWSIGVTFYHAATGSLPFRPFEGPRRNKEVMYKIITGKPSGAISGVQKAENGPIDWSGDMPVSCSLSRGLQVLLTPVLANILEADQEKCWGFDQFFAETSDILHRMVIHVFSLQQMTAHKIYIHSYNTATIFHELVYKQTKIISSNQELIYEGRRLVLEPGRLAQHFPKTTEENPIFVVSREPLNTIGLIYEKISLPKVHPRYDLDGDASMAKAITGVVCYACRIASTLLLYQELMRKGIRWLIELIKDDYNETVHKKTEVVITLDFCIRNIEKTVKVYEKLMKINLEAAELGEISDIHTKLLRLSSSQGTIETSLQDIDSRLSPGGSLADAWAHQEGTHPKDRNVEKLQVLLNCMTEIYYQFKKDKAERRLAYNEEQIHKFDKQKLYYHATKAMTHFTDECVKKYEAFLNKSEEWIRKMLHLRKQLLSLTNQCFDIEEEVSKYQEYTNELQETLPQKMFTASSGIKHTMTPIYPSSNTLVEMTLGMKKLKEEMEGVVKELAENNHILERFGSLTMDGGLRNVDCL
# Procedure text: TR-FRET kinase assay, TBK1
# Particulars: read-out: TBK1-IC50; full length recombinant TBK1 2.5 nM, 2x Km ATP, 1 μM peptide, 240 min at 25° C.; geometric mean of minimum four determinations
Parameter measured: pIC50
Note: pIC50 values are expressed as the negative base-10 logarithm of concentration in M.

N#Cc1cc(-c2ccnc3[nH]c(-c4ccc(N5CCOCC5)cc4)cc23)ccc1OC1CCN(C(=O)CN)CC1 [Example 152] :: 8.23
COc1cc(-c2cc3c(-c4ccc(OC5CCOCC5)c(C#N)c4)ncnc3[nH]2)ccc1N1CCOCC1 [Example 136] :: 9.00
N#Cc1cc(-c2ccnc3[nH]c(C4=CCN(C5COC5)C4)cc23)ccc1OC1CCOCC1 [Example 178] :: 8.11

For the next question, use this compound.
GET /value?item= N#Cc1cc(-c2ncnc3[nH]c(-c4ccc(C(=O)N5CCCC5)cc4)cc23)ccc1OC1CCN(C(=O)CO)CC1 [Example 162] &field=pIC50 returns 8.83
